Origin of values: patent US9550755B2

- testedSystem: Recombinant human factor D (Homo sapiens (Human))
- Sequence (P00746 26-253): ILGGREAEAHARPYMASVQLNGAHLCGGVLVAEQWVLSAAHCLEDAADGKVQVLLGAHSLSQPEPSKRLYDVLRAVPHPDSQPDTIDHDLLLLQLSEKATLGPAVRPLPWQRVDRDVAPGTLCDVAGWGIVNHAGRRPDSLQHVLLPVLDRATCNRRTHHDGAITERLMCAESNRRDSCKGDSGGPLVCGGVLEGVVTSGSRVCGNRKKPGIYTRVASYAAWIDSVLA
- runDescription: Human Complement Factor D Assay: Method 1
- Format: biochemical
- conditionParameters: recombinant human factor D 10 nM; substrate Z-Lys-thiobenzyl; fluorescence readout; read-out: IC50 (μM), Factor D inhibition using Method 1
- Procedure: Human Complement Factor D Assay: Method 1 Recombinant human factor D (expressed in E. coli and purified using standard methods) at 10 nM concentration is incubated with test compound at various concentrations for 1 hour at room temperature in 0.1 M Hepes buffer, pH 7.5, containing 1 mM MgCl2, 1 M NaCl and 0.05% CHAPS. […] The increase in fluorescence is recorded at excitation of 485 nm and emission at 535 nm in a microplate spectrofluorimeter. […]
Entries annotated with measured IC50
measuredEndpoint: IC50 (µM)

NC(=O)c1nn(CC(=O)N2[C@@H]3C[C@@H]3C[C@H]2C(=O)Nc2ccn(CC(F)(F)F)n2)c2cnccc12 : 0.098
NC(=O)n1cc(NC(=O)N2[C@@H]3C[C@@H]3C[C@H]2C(=O)Nc2ccn(CC(F)(F)F)n2)c2ccccc21 : 0.032
NC(=O)c1nn(CC(=O)N2[C@@H]3C[C@@H]3C[C@H]2C(=O)Nc2ccn(CC(F)(F)F)n2)c2ccccc12 : 0.064
CC(C)n1ccc(NC(=O)[C@@H]2C[C@H]3C[C@H]3N2C(=O)Cn2nc(C(N)=O)c3ccccc32)n1 : 0.17
CC(=O)c1nn(CC(=O)N2[C@@H]3C[C@@H]3C[C@H]2C(=O)Nc2ccn(CC(F)(F)F)n2)c2cnccc12 : 0.083
